System: Kl. pneumoniae Y-41
Assay: Antibacterial activity (MIC), Kl. pneumoniae Y-41
Format: cell-based
Conditions: Klebsiella pneumoniae, Y41; Heart Infusion agar, 37° C., 20 hours, 10^6 cells/ml
READOUT: MIC

The examples below pair each entry with its known result.
CN(C)n1ccn(CC2=C(C(=O)O)N3C(=O)C(NC(=O)/C(=N\OCC(=O)O)c4csc(N)n4)C3SC2)c(=O)c1=O (stereo not drawn): 0.2 µg/mL
CO/N=C(\C(=O)NC1C(=O)N2C(C(=O)O)=C(Cn3ccn(C)c(=O)c3=O)CSC12)c1csc(N)n1 (stereo not drawn): ≤ 0.1 µg/mL
CO/N=C(\C(=O)NC1C(=O)N2C(C(=O)O)=C(Cn3ccn(C(C)C)c(=O)c3=O)CSC12)c1csc(N)n1 (stereo not drawn): ≤ 0.1 µg/mL
CCn1ccn(CC2=C(C(=O)O)N3C(=O)C(NC(=O)/C(=N\OC)c4csc(N)n4)C3SC2)c(=O)c1=O (stereo not drawn): ≤ 0.1 µg/mL
Nc1nc(/C(=N/OCC(=O)O)C(=O)NC2C(=O)N3C(C(=O)O)=C(Cn4cc[nH]c(=O)c4=O)CSC23)cs1 (stereo not drawn): 0.39 µg/mL
CO/N=C(\C(=O)NC1C(=O)N2C(C(=O)O)=C(Cn3cc[nH]c(=O)c3=O)CSC12)c1csc(N)n1 (stereo not drawn): ≤ 0.1 µg/mL
CCn1ccn(CC2=C(C(=O)O)N3C(=O)C(NC(=O)/C(=N\OCC(=O)O)c4csc(N)n4)C3SC2)c(=O)c1=O (stereo not drawn): ≤ 0.1 µg/mL
CO/N=C(\C(=O)NC1C(=O)N2C(C(=O)O)=C(Cn3ccn(N(C)C)c(=O)c3=O)CSC12)c1csc(N)n1 (stereo not drawn): ≤ 0.1 µg/mL

I'd like to know its MIC. The molecule in question is Cn1ccn(CC2=C(C(=O)O)N3C(=O)C(NC(=O)/C(=N\OCC(=O)O)c4csc(N)n4)C3SC2)c(=O)c1=O (stereo not drawn)
≤ 0.1 µg/mL

---

Hi there, I'd appreciate the recorded MIC for every entry that follows.
System: Ps. aeruginosa GN918
Test: Antibacterial activity (MIC), Ps. aeruginosa GN918
Assay type: cell-based
Conditions: Pseudomonas aeruginosa, cephalosporinase-producing strain, Heart Infusion agar, 37° C., 20 hours, 10^6 cells/ml
Give bare numbers, in µg/mL.

CO/N=C(\C(=O)NC1C(=O)N2C(C(=O)O)=C(Cn3cc[nH]c(=O)c3=O)CSC12)c1csc(N)n1 (centres unmarked) [A]: 12.5
CO/N=C(\C(=O)NC1C(=O)N2C(C(=O)O)=C(Cn3ccn(C)c(=O)c3=O)CSC12)c1csc(N)n1 (centres unmarked) [B]: 25
CCn1ccn(CC2=C(C(=O)O)N3C(=O)C(NC(=O)/C(=N\OCC(=O)O)c4csc(N)n4)C3SC2)c(=O)c1=O (centres unmarked) [H]: 6.25
CN(C)n1ccn(CC2=C(C(=O)O)N3C(=O)C(NC(=O)/C(=N\OCC(=O)O)c4csc(N)n4)C3SC2)c(=O)c1=O (centres unmarked) [I]: 12.5

// query MIC value for entry CCn1ccn(CC2=C(C(=O)O)N3C(=O)C(NC(=O)/C(=N\OC)c4csc(N)n4)C3SC2)c(=O)c1=O (centres unmarked) [C]
6.25

---

System: Kl. pneumoniae Y-50
Assay: Antibacterial activity (MIC), Kl. pneumoniae Y-50
Format: cell-based
Conditions: Klebsiella pneumoniae, Y50; Heart Infusion agar, 37° C., 20 hours, 10^6 cells/ml
READOUT: MIC (µg/mL)
Answers are plain numbers, in µg/mL.

The following compounds have reported results that may help.
CN(C)n1ccn(CC2=C(C(=O)O)N3C(=O)C(NC(=O)/C(=N\OCC(=O)O)c4csc(N)n4)C3SC2)c(=O)c1=O (centres unmarked): 0.2
Cn1ccn(CC2=C(C(=O)O)N3C(=O)C(NC(=O)/C(=N\OCC(=O)O)c4csc(N)n4)C3SC2)c(=O)c1=O (centres unmarked): 0.2
CO/N=C(\C(=O)NC1C(=O)N2C(C(=O)O)=C(Cn3nc(C)ccc3=O)CSC12)c1csc(N)n1 (centres unmarked): 0.2

// input: 3 compounds below; output: MIC for each
1. Cc1ccc(=O)n(CC2=C(C(=O)O)N3C(=O)C(NC(=O)/C(=N\OCC(=O)O)c4csc(N)n4)C3SC2)n1 (centres unmarked)
2. Nc1nc(/C(=N/OCC(=O)O)C(=O)NC2C(=O)N3C(C(=O)O)=C(Cn4[nH]c(=O)ccc4=O)CSC23)cs1 (centres unmarked)
3. CCn1ccn(CC2=C(C(=O)O)N3C(=O)C(NC(=O)/C(=N\OCC(=O)O)c4csc(N)n4)C3SC2)c(=O)c1=O (centres unmarked)

1: 0.39; 2: 0.78; 3: 0.2

---

System: Ser. marcescens W-134
Test: Antibacterial activity (MIC), Ser. marcescens W-134
Type: cell-based
Details: Serratia marcescens, W134, 20 h
Give measured MIC for each item. Keep answers brief.
Numbers only, in µg/mL.

CO/N=C(\C(=O)NC1C(=O)N2C(C(=O)O)=C(Cn3nc(C)ccc3=O)CSC12)c1csc(N)n1 (centres unmarked): 0.78

Read the next record carefully.
Look up MIC: CO/N=C(\C(=O)NC1C(=O)N2C(C(=O)O)=C(Cn3ccncc3=O)CSC12)c1csc(N)n1 (centres unmarked)
0.39

---

I'd appreciate it if you could supply MIC values for the items below.
Test system: Cit. freundii N-7
Assay: Antibacterial activity (MIC), Cit. freundii N-7
Type: cell-based
Settings: Citrobacter freundii, N7; Heart Infusion agar, 37° C., 20 hours, 10^6 cells/ml; read-out: MIC
Description: The amount of the inoculated bacteria was 10^4 cells/plate (10^6 cells/ml).
Lab note: write values as number then unit, every time.

Check out these entries, answers already filled in.
CO/N=C(\C(=O)NC1C(=O)N2C(C(=O)O)=C(Cn3ccn(C)c(=O)c3=O)CSC12)c1csc(N)n1 (centres unmarked) [B]: 1.56 µg/mL
CO/N=C(\C(=O)NC1C(=O)N2C(C(=O)O)=C(Cn3cc[nH]c(=O)c3=O)CSC12)c1csc(N)n1 (centres unmarked) [A]: 0.39 µg/mL
CO/N=C(\C(=O)NC1C(=O)N2C(C(=O)O)=C(Cn3ccncc3=O)CSC12)c1csc(N)n1 (centres unmarked) [J]: 0.78 µg/mL

Record MIC per entry; entries follow.
1. CO/N=C(\C(=O)NC1C(=O)N2C(C(=O)O)=C(Cn3ccn(C(C)C)c(=O)c3=O)CSC12)c1csc(N)n1 (centres unmarked) [D]
2. CN(C)n1ccn(CC2=C(C(=O)O)N3C(=O)C(NC(=O)/C(=N\OCC(=O)O)c4csc(N)n4)C3SC2)c(=O)c1=O (centres unmarked) [I]
3. CO/N=C(\C(=O)NC1C(=O)N2C(C(=O)O)=C(Cn3ccn(N(C)C)c(=O)c3=O)CSC12)c1csc(N)n1 (centres unmarked) [E]
4. Nc1nc(/C(=N/OCC(=O)O)C(=O)NC2C(=O)N3C(C(=O)O)=C(Cn4cc[nH]c(=O)c4=O)CSC23)cs1 (centres unmarked) [F]
5. CO/N=C(\C(=O)NC1C(=O)N2C(C(=O)O)=C(Cn3nc(C)ccc3=O)CSC12)c1csc(N)n1 (centres unmarked) [M]
6. CCn1ccn(CC2=C(C(=O)O)N3C(=O)C(NC(=O)/C(=N\OC)c4csc(N)n4)C3SC2)c(=O)c1=O (centres unmarked) [C]

1: 1.56 µg/mL; 2: 1.56 µg/mL; 3: 0.78 µg/mL; 4: 0.78 µg/mL; 5: 0.78 µg/mL; 6: 0.78 µg/mL

# per-item lookup of MIC; items listed below
1. Cn1ccn(CC2=C(C(=O)O)N3C(=O)C(NC(=O)/C(=N\OCC(=O)O)c4csc(N)n4)C3SC2)c(=O)c1=O (centres unmarked) [G]
2. CCn1ccn(CC2=C(C(=O)O)N3C(=O)C(NC(=O)/C(=N\OCC(=O)O)c4csc(N)n4)C3SC2)c(=O)c1=O (centres unmarked) [H]

1.56 µg/mL
1.56 µg/mL

---

Tested on: Ser. marcescens W-134
Experiment: Antibacterial activity (MIC), Ser. marcescens W-134
Assay type: cell-based
Settings: Serratia marcescens, W134, 20 h
READOUT: MIC

Take a look at these entries with their results.
Nc1nc(/C(=N/OCC(=O)O)C(=O)NC2C(=O)N3C(C(=O)O)=C(Cn4cc[nH]c(=O)c4=O)CSC23)cs1 (stereo not drawn) [F]: ≤ 0.1 µg/mL
CN(C)n1ccn(CC2=C(C(=O)O)N3C(=O)C(NC(=O)/C(=N\OCC(=O)O)c4csc(N)n4)C3SC2)c(=O)c1=O (stereo not drawn) [I]: ≤ 0.1 µg/mL

Proceed to the following item.
Which MIC value is on record for Nc1nc(/C(=N/OCC(=O)O)C(=O)NC2C(=O)N3C(C(=O)O)=C(Cn4[nH]c(=O)ccc4=O)CSC23)cs1 (stereo not drawn) [L] ?
≤ 0.1 µg/mL

Entry source: patent US4717767A
